// provenance: patent US8546377B2

Reported values of log10(EC50) for individual entries
# assay target: 5HT2C receptors (Homo sapiens, UniProt P28335)
# test name: Human 5-HT2C functional assay in CHO-K1 cells (calcium flux, FLIPR)
# Format: cell-based
# Parameters: expressed in transfected cells; host or cells: CHO-K1 cells
Give log10 of EC50, with EC50 taken in nM.

c1cc(-c2ccncc2)c2c(c1)N1CCNC[C@@H]1CCO2 : 0.85
c1cncc(-c2cccc3c2OCC[C@H]2CNCCN32)c1 : -0.15
CN1CCN2c3cccc(F)c3OCC[C@H]2C1 : 0.60
Cc1cccc2c1OCC[C@H]1CN(C)CCN21 : 0.30
[2H]c1ccc2c(c1)OCC[C@H]1CNCCN21 : 0.48
O=C1C[C@@H]2CNCCN2c2cccc(F)c2N1 : 2.88

Okay, now this compound:
Record summary for O=C1C[C@H]2CNCCN2c2cccc(F)c2N1 : reported log10(EC50) = 0.71

---

// reported Emax for each item listed
# assay target: 5HT2B receptors (Homo sapiens, UniProt P41595)
# Construct: expressed in transfected cells; host or cells: CHO-K1 cells
# Sequence (P41595 whole entry): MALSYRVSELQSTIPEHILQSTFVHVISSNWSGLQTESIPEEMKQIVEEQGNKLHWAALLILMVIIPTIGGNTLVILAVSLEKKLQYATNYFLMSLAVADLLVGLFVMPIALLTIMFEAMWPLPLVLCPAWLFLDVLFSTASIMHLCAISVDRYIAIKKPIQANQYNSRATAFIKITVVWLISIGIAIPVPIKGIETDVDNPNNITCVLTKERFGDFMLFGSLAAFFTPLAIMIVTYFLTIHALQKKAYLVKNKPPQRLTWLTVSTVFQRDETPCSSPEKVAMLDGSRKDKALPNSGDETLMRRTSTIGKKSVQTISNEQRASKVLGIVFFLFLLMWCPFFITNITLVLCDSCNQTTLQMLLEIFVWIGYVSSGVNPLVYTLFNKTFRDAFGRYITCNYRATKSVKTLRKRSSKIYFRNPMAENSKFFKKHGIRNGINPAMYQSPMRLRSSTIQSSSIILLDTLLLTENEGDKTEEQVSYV
# test name: Human 5-HT2B functional assay in CHO-K1 cells (calcium flux, FLIPR)
# Format: cell-based
# test settings: CHO-K1 cells; percentage relative to the effect of serotonin; read-out: Emax (%), 5-HT2B Agonist Activity
Quick note: give the figure in %, leave out the unit.

// known answers, use as guide
c1ccc(CCc2ccc3c(c2)N2CCNC[C@@H]2CCO3)cc1 : 45
CC(C)Cc1ccc2c(c1)N1CCNC[C@@H]1CCO2 : 25
O=C1CC2CNCCN2c2ccc(S(=O)(=O)c3ccccc3)cc2N1 (stereo not drawn) : 90
O=C1C[C@H]2CNCCN2c2cc(OC(F)F)ccc2N1 : 20

The molecule COc1ccccc1-c1ccc2c(c1)N1CCNC[C@@H]1CCO2 , tested on 5HT2B receptors (Homo sapiens, UniProt P41595), showed Emax of 10

For the molecule Cn1cc(-c2ccc3c(c2)N2CCNCC2CC(=O)N3)cn1 (stereo not drawn) , the measured Emax on 5HT2B receptors (Homo sapiens, UniProt P41595) was 50

---

# assay target: 5HT2C receptors (Homo sapiens)
# test name: Human 5-HT2C functional assay in CHO-K1 cells (calcium flux, FLIPR)
# Type: cell-based
# Design: expressed in transfected cells; host or cells: CHO-K1 cells
# test settings: CHO-K1 cells; percentage relative to the effect of serotonin; read-out: Emax (%), 5-HT2c Agonist Activity
Quick reference: Emax of the listed items.

Some entries whose results are on file:
C[C@H](Cc1ccccc1)Oc1ccc2c(c1)N1CCNC[C@@H]1CC(=O)N2 : > 120%
C[C@H](Oc1ccc2c(c1)N1CCNCC1CC(=O)N2)c1ccccc1F (stereo partly drawn) : > 120%
O=C1CC2CNCCN2c2cc(COc3ccccc3)ccc2N1 (stereo not drawn) : > 120%
c1ccc(CN2CCN3c4ccccc4OCC[C@H]3C2)cc1 : 50%
O=C1CC2CNCCN2c2cc(-c3cccc(-c4ccccc4)c3)ccc2N1 (stereo not drawn) : > 120%

Now examine the next entry.
Consider Cc1cccc(-c2ccc3c(c2)N2CCNC[C@@H]2CCO3)c1 . Its measured Emax is > 120%

---

# assay target: 5HT2C receptors (Homo sapiens)
# Sequence (P28335 33-458): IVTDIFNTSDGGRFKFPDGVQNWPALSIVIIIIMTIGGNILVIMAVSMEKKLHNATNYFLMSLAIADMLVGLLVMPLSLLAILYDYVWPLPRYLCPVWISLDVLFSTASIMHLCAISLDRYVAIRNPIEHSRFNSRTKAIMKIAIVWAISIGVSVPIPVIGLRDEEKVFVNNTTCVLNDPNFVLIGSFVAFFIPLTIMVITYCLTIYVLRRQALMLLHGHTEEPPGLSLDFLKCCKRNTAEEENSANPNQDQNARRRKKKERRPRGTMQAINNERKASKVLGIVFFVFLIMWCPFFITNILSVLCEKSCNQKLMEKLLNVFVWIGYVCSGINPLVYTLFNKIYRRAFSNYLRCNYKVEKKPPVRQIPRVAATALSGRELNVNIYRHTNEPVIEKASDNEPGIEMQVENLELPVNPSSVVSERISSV
# test name: Human 5-HT2C functional assay in CHO-K1 cells (calcium flux, FLIPR)
# Format: cell-based
# Set-up: expressed in transfected cells; host or cells: CHO-K1 cells
# test settings: CHO-K1 cells over-expressing 5HT2C, calcium flux; read-out: EC50 (μM), 5-HT2c Agonist Activity
Reported EC50 values are given for each entry in this list.
Give just the number in µM; leave the unit off.

Use the examples below as a reference point.
O=C1CC2CNCCN2c2cc(OCc3ccccc3)ccc2N1 (stereo not drawn) : 0.02
CC(O)c1ccc(-c2cccc3c2OCC[C@H]2CNCCN32)cc1 (stereo partly drawn) : 0.01
O=C1CC2CNCCN2c2cc(-c3ccoc3)ccc2N1 (stereo not drawn) : 0.02
O=C1CC2CNCCN2c2cc(-c3cccc(OC(F)(F)F)c3)ccc2N1 (stereo not drawn) : 0.007

We now examine a further compound.
Here FCCN1CCN2c3ccccc3OCC[C@@H]2C1 was tested on 5HT2C receptors (Homo sapiens), and its EC50 came to 0.09
